# assay_system: soluble HLA-B*0702 (Homo sapiens, UniProt P01889)
# method_summary: Fluorescence polarization
# Format: binding
Where no end group is shown, it is not given here.
measure_name: pIC50
Expect pIC50 as a plain number equal to -log10 of the molar concentration.

Worked cases, pIC50 given:
{"sequence": "FPARPQVPL", "assay_system": "soluble HLA-B*0702 (Homo sapiens, UniProt P01889)", "measure_name": "pIC50", "quantitative_result": 5.34}
{"sequence": "RPMTWKGAL [RPMTWKGAL]", "assay_system": "soluble HLA-B*0702 (Homo sapiens, UniProt P01889)", "measure_name": "pIC50", "quantitative_result": 5.15}
{"sequence": "RPMTCKGAL [RPMTCKGAL]", "assay_system": "soluble HLA-B*0702 (Homo sapiens, UniProt P01889)", "measure_name": "pIC50", "quantitative_result": 5.26}
{"sequence": "RPITYKAAL [RPITYKAAL]", "assay_system": "soluble HLA-B*0702 (Homo sapiens, UniProt P01889)", "measure_name": "pIC50", "quantitative_result": 5.13}
{"sequence": "RPTNNTRKSI", "assay_system": "soluble HLA-B*0702 (Homo sapiens, UniProt P01889)", "measure_name": "pIC50", "quantitative_result": 5.25}

[Q] Please report the recorded pIC50 for "PPRTLNAWV" .
[A] 4.78

----------
# assay_system: soluble HLA-B*0702 (Homo sapiens, UniProt P01889)
# method_summary: Fluorescence polarization
# Assay type: binding
Where no end group is shown, it is not given here.
IC50 for assorted sequences
Respond numerically; units are µM and should not be typed.

{"sequence": "RPSNNTRKRI", "IC50 / µM": 14.8}
{"sequence": "RPNNNTRRSI", "IC50 / µM": 9.77}
{"sequence": "SPRTLDAWV", "IC50 / µM": 24}
{"sequence": "TKGPGIRFPL", "IC50 / µM": 257}
{"sequence": "TPGPGIRFPI", "IC50 / µM": 5.89}

[Q] Please report the recorded IC50 for RPMTRKAAL [RPMTRKAAL] .
[A] 6.61

[Q] Try "RPNNNTRKCI" next.
[A] 42.7

[Q] Try "RPNNNTRKSL" next.
[A] 4.9

[Q] Try "TPGPGTRYPL" next.
[A] 3.72

[Q] Try "RPNNNTGKRI" next.
[A] 22.9

----------
log10(IC50) for assorted sequences
# assay_system: soluble HLA-B*0702 (Homo sapiens)
# method_summary: Fluorescence polarization
# Assay type: binding
Where no end group is shown, it is not given here.
Scale: decimal log of IC50, IC50 in µM.

{"sequence": "RPNNSTRKSI", "log10(IC50)": 0.87}
{"sequence": "FPIRPQVPL", "log10(IC50)": 0.62}

[Q] Please report the recorded log10(IC50) for "TPGPGIRYPL" .
[A] 0.78

[Q] Try "TPGPGPRYPL" next.
[A] 0.77

[Q] Try RPMTWKAAL [RPMTWKAAL] next.
[A] 0.86

[Q] Try "SPRTLSAWV" next.
[A] 3.08

[Q] Try "RPNNDTRKSI" next.
[A] 0.85

[Q] Try "RPNNNTRKSI" next.
[A] 0.56

[Q] Try RPMTYKGAL [RPMTYKGAL] next.
[A] 0.89

[Q] Try "TPGPGPRYPV" next.
[A] 0.82

The measurements presented in this section are drawn from paper PMC4110927.
